Target: cell surface-expressed H3N2 WN/05 HA trimer (influenza A virus A/Wisconsin/67/2005 (H3N2))
Test: cell-based or functional assay
For each of the binders below, state its IC50 of pseudo virus neutralization H3N2 WN/05.

Below: 2 binders and their reported IC50 of pseudo virus neutralization H3N2 WN/05.
# binder, result
rows = [
    ("S07 (antibody, V domains shown) VH: EVQLVESGGGLVQPGGSLRLSCAASGFTINSSGIHWVRQAPGKGLEWVASIGPSWGSTYYADSVKGRFTISADTSKNTAYLQMNSLRAEDTAVYYCARFGIGDIDVMDYWGQGTLVTVSS VL: DIQMTQSPSSLSASVGDRVTITCRASQDVWGYVAWYQQKPGKAPKLLISYASFLYSGVPSRFSGSGSGTDFTLTISSLQPEDFATYYCQQYFNWPVTFGQGTKVEIKR", "> 20 µg/mL"),
    ("C05 (antibody, V domains shown) VH: PVQLQESGGGLVQPGESLRLSCVGSGSSFGESTLSYYAVSWVRQAPGKGLEWLSIINAGGGDIDYADSVEGRFTISRDNSKETLYLQMTNLRVEDTGVYYCAKHMSMQQVVSAGWERADLVGDAFDVWGQGTMVTVSS VL: DIQLTQSPSSLSASVGDRVTLTCQASQDIRKFLNWYQQKPGKGPKLLIYDASNLQRGVPSRFSGGGSGTDFTLIISSLQPEDVGTYYCQQYDGLPFTFGGGTKVEIKR", "0.0102 µg/mL"),
]

Now let's try a different one.
Q: Respond only with IC50 of pseudo virus neutralization H3N2 WN/05 recorded for S40 (antibody, V domains shown) VH: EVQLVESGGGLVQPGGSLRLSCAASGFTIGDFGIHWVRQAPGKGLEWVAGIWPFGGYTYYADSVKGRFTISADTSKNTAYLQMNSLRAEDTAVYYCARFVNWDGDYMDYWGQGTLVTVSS VL: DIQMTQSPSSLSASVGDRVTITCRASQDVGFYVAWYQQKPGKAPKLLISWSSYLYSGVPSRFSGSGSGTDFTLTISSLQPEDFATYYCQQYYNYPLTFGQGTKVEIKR
A: > 20 µg/mL
